Entry source: the supplement of paper PMC9112550

- Test system: Escherichia coli TOP10
- protocol: shrunken log2 fold change of peptide-encoding DNA abundance (4.5 h post-induction vs induction); higher = less antimicrobial activity (less host growth inhibition)
- assay.conditions: time post-induction: 4.5 h; library: site-saturation at positions 5, 18, 19, 20
Kindly supply the reported shrunken log2 fold change values for the records listed here.

# shrunken log2 fold change of RRIRPRPPRLPRPRPRPFKYPRP = -0.0171

# shrunken log2 fold change of RRIRSRPPRLPRPRPRPKVDPRP = 0.093

# shrunken log2 fold change of RRIRVRPPRLPRPRPRPQPVPRP = -0.195

# shrunken log2 fold change of RRIRCRPPRLPRPRPRPNYSPRP = -0.522

# shrunken log2 fold change of RRIRARPPRLPRPRPRPGKRPRP = 0.374

# shrunken log2 fold change of RRIRLRPPRLPRPRPRPNVQPRP = -0.275

# shrunken log2 fold change of RRIRERPPRLPRPRPRPTFRPRP = -0.00937

# shrunken log2 fold change of RRIRDRPPRLPRPRPRPLTRPRP = -0.00589

# shrunken log2 fold change of RRIRPRPPRLPRPRPRPNEAPRP = -0.151

# shrunken log2 fold change of RRIRTRPPRLPRPRPRPPWTPRP = 0.167

# shrunken log2 fold change of RRIRCRPPRLPRPRPRPMDYPRP = -0.181

# shrunken log2 fold change of RRIRCRPPRLPRPRPRPDDEPRP = 0.33

# shrunken log2 fold change of RRIRNRPPRLPRPRPRPPQWPRP = 0.315

# shrunken log2 fold change of RRIRARPPRLPRPRPRPQVGPRP = 0.391

# shrunken log2 fold change of RRIRSRPPRLPRPRPRPTQLPRP = 0.249

# shrunken log2 fold change of RRIRMRPPRLPRPRPRPGVAPRP = 1.02

# shrunken log2 fold change of RRIRGRPPRLPRPRPRPASMPRP = 0.548

# shrunken log2 fold change of RRIRHRPPRLPRPRPRPILTPRP = -0.201

# shrunken log2 fold change of RRIRWRPPRLPRPRPRPHLTPRP = -0.19

# shrunken log2 fold change of RRIRHRPPRLPRPRPRPTITPRP = -0.384

# shrunken log2 fold change of RRIRSRPPRLPRPRPRPRRVPRP = 0.452

# shrunken log2 fold change of RRIRHRPPRLPRPRPRPNVSPRP = -0.0959

# shrunken log2 fold change of RRIRGRPPRLPRPRPRPVGHPRP = 0.453

# shrunken log2 fold change of RRIRSRPPRLPRPRPRPLILPRP = -0.628

# shrunken log2 fold change of RRIRERPPRLPRPRPRPELDPRP = 0.0389

# shrunken log2 fold change of RRIRGRPPRLPRPRPRPRLSPRP = 0.313

# shrunken log2 fold change of RRIRGRPPRLPRPRPRPESTPRP = 1.63

# shrunken log2 fold change of RRIRQRPPRLPRPRPRPLHPPRP = -0.0917

# shrunken log2 fold change of RRIRCRPPRLPRPRPRPTMRPRP = 0.529

# shrunken log2 fold change of RRIRMRPPRLPRPRPRPIHMPRP = -0.221

# shrunken log2 fold change of RRIRCRPPRLPRPRPRPAFKPRP = 0.132

# shrunken log2 fold change of RRIRQRPPRLPRPRPRPKTMPRP = -0.0635

# shrunken log2 fold change of RRIRWRPPRLPRPRPRPFYVPRP = -0.348

# shrunken log2 fold change of RRIRVRPPRLPRPRPRPDMFPRP = 0.0441

# shrunken log2 fold change of RRIRARPPRLPRPRPRPGEPPRP = 0.601

# shrunken log2 fold change of RRIRYRPPRLPRPRPRPVDMPRP = -0.0154

----------
- System: Escherichia coli TOP10
- protocol: shrunken log2 fold change of peptide-encoding DNA abundance (4.5 h post-induction vs induction); higher = less antimicrobial activity (less host growth inhibition)
- assay.conditions: time post-induction: 4.5 h; library: site-saturation at positions 5, 18, 19, 20
I would appreciate it if you labelled entries Criterion met when shrunken log2 fold change is -0.1 or higher, otherwise Criterion not met.

Does the sequence RRIRLRPPRLPRPRPRPCCYPRP have recorded shrunken log2 fold change that is -0.1 or more?
Criterion not met

Does the sequence RRIRTRPPRLPRPRPRPMWCPRP have recorded shrunken log2 fold change that is -0.1 or more?
Criterion not met

Does the sequence RRIRYRPPRLPRPRPRPMTTPRP have recorded shrunken log2 fold change that is -0.1 or more?
Criterion not met

Does the sequence RRIRARPPRLPRPRPRPIIAPRP have recorded shrunken log2 fold change that is -0.1 or more?
Criterion met

Does the sequence RRIRWRPPRLPRPRPRPCEVPRP have recorded shrunken log2 fold change that is -0.1 or more?
Criterion met

Does the sequence RRIRIRPPRLPRPRPRPPQSPRP have recorded shrunken log2 fold change that is -0.1 or more?
Criterion met

Does the sequence RRIRPRPPRLPRPRPRPIQRPRP have recorded shrunken log2 fold change that is -0.1 or more?
Criterion met

Does the sequence RRIRSRPPRLPRPRPRPHKWPRP have recorded shrunken log2 fold change that is -0.1 or more?
Criterion not met

Does the sequence RRIRPRPPRLPRPRPRPYSNPRP have recorded shrunken log2 fold change that is -0.1 or more?
Criterion not met

Does the sequence RRIRSRPPRLPRPRPRPDPRPRP have recorded shrunken log2 fold change that is -0.1 or more?
Criterion met

Does the sequence RRIRPRPPRLPRPRPRPSWHPRP have recorded shrunken log2 fold change that is -0.1 or more?
Criterion met

Does the sequence RRIRTRPPRLPRPRPRPPDHPRP have recorded shrunken log2 fold change that is -0.1 or more?
Criterion met

Does the sequence RRIRKRPPRLPRPRPRPCVSPRP have recorded shrunken log2 fold change that is -0.1 or more?
Criterion not met

Does the sequence RRIRRRPPRLPRPRPRPFQNPRP have recorded shrunken log2 fold change that is -0.1 or more?
Criterion met

Does the sequence RRIRRRPPRLPRPRPRPKLNPRP have recorded shrunken log2 fold change that is -0.1 or more?
Criterion met

Does the sequence RRIRRRPPRLPRPRPRPGWSPRP have recorded shrunken log2 fold change that is -0.1 or more?
Criterion met

Does the sequence RRIRIRPPRLPRPRPRPTNDPRP have recorded shrunken log2 fold change that is -0.1 or more?
Criterion not met

Does the sequence RRIRMRPPRLPRPRPRPRMEPRP have recorded shrunken log2 fold change that is -0.1 or more?
Criterion met

Does the sequence RRIRERPPRLPRPRPRPPTEPRP have recorded shrunken log2 fold change that is -0.1 or more?
Criterion met

Does the sequence RRIRPRPPRLPRPRPRPSHIPRP have recorded shrunken log2 fold change that is -0.1 or more?
Criterion not met

Does the sequence RRIRYRPPRLPRPRPRPKMLPRP have recorded shrunken log2 fold change that is -0.1 or more?
Criterion met

Does the sequence RRIRTRPPRLPRPRPRPENYPRP have recorded shrunken log2 fold change that is -0.1 or more?
Criterion met

Does the sequence RRIRSRPPRLPRPRPRPHVAPRP have recorded shrunken log2 fold change that is -0.1 or more?
Criterion not met

Does the sequence RRIRPRPPRLPRPRPRPIMSPRP have recorded shrunken log2 fold change that is -0.1 or more?
Criterion met

Does the sequence RRIRIRPPRLPRPRPRPFVFPRP have recorded shrunken log2 fold change that is -0.1 or more?
Criterion not met

Does the sequence RRIRNRPPRLPRPRPRPWIAPRP have recorded shrunken log2 fold change that is -0.1 or more?
Criterion not met

Does the sequence RRIRDRPPRLPRPRPRPLINPRP have recorded shrunken log2 fold change that is -0.1 or more?
Criterion met

Does the sequence RRIRNRPPRLPRPRPRPMRFPRP have recorded shrunken log2 fold change that is -0.1 or more?
Criterion met

----------
Kindly supply the reported shrunken log2 fold change values for the records listed here.
- Test system: Escherichia coli TOP10
- protocol: shrunken log2 fold change of peptide-encoding DNA abundance (4.5 h post-induction vs induction); higher = less antimicrobial activity (less host growth inhibition)
- assay.conditions: time post-induction: 4.5 h; library: site-saturation at positions 5, 18, 19, 20
Give only the figure.

# shrunken log2 fold change of RRIRKRPPRLPRPRPRPIHTPRP = 0.101

# shrunken log2 fold change of RRIRPRPPRLPRPRPRPGFYPRP = -0.421

# shrunken log2 fold change of RRIRIRPPRLPRPRPRPNMCPRP = 0.0488

# shrunken log2 fold change of RRIRTRPPRLPRPRPRPFFHPRP = -0.158

# shrunken log2 fold change of RRIRDRPPRLPRPRPRPGGHPRP = 0.188

# shrunken log2 fold change of RRIRDRPPRLPRPRPRPGVWPRP = 0.886

----------
- System: Escherichia coli TOP10;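 note: peptides expressed intracellularly from a pBAD plasmid library in pooled LB shake-flask culture, induced with 0.3% L-arabinose, DNA abundance read by NGS, three biological replicates, DESeq2 with apeglm shrinkage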
- protocol: shrunken log2 fold change of peptide-encoding DNA abundance (4.5 h post-induction vs induction); higher = less antimicrobial activity (less host growth inhibition)
- assay.conditions: time post-induction: 4.5 h; library: site-saturation at positions 5, 18, 19, 20
observation.type: shrunken log2 fold change

# shrunken log2 fold change of RRIRKRPPRLPRPRPRPCQNPRP = 0.412

# shrunken log2 fold change of RRIRSRPPRLPRPRPRPHVYPRP = -0.355

# shrunken log2 fold change of RRIRGRPPRLPRPRPRPQCSPRP = -0.0401

# shrunken log2 fold change of RRIRVRPPRLPRPRPRPMCSPRP = -0.237

# shrunken log2 fold change of RRIRQRPPRLPRPRPRPDYAPRP = -0.00674

# shrunken log2 fold change of RRIRMRPPRLPRPRPRPRIQPRP = 0.203

# shrunken log2 fold change of RRIRHRPPRLPRPRPRPPECPRP = 0.331

# shrunken log2 fold change of RRIRTRPPRLPRPRPRPKRVPRP = -0.0636

# shrunken log2 fold change of RRIRFRPPRLPRPRPRPYITPRP = -0.906

# shrunken log2 fold change of RRIRIRPPRLPRPRPRPGGMPRP = -0.0648

# shrunken log2 fold change of RRIRSRPPRLPRPRPRPHVTPRP = -0.232

# shrunken log2 fold change of RRIRPRPPRLPRPRPRPNFMPRP = 0.109

# shrunken log2 fold change of RRIRSRPPRLPRPRPRPVMYPRP = -0.0786

# shrunken log2 fold change of RRIRRRPPRLPRPRPRPKDCPRP = 0.132

# shrunken log2 fold change of RRIRLRPPRLPRPRPRPTMKPRP = -0.0755
